Property: inhibition; scope: individual molecules
Molecular target: Telomerase reverse transcriptase (Homo sapiens)
Test: Inhibition of telomerase in human HepG2 cells at 4 uM after 3 days by TRAP-ELISA method
Assay type: cell-based
Please state the figure in %; there is no need to write the unit.

Problem: Record lookup: for Telomerase reverse transcriptase (Homo sapiens), what inhibition belongs to COc1ccc2ccc(=O)oc2c1C1=NNC(c2ccc(C(F)(F)F)cc2)C1 (stereo unspecified) ?
Result: 71.1

Problem: Would you mind doing COc1ccc2ccc(=O)oc2c1C1=NN(C(N)=O)C(c2ccc(SC)cc2)C1 (stereo unspecified) as well?
Result: 61.7

Problem: Would you mind doing COc1ccc2ccc(=O)oc2c1C1=NNC(c2cccs2)C1 (stereo unspecified) as well?
Result: 75.5

* * *

Target: Telomerase reverse transcriptase (Homo sapiens)
Assay: Inhibition of telomerase in human HepG2 cells at 2 uM after 1 day by TRAP-ELISA method
Assay type: cell-based
assay.metric: inhibition
Give your result as the value with the unit written after it.

>  <molecule>
CN[C@@H]1C[C@H]2O[C@@](C)([C@@H]1OC)n1c3ccccc3c3c4c(c5c6ccccc6n2c5c31)C(=O)NC4

>  <inhibition>
12.7%

$$$$
>  <molecule>
COc1ccc2ccc(=O)oc2c1C1=NNC(c2ccc(SC)cc2)C1 (stereo unspecified)

>  <inhibition>
23.2%

$$$$
>  <molecule>
COc1ccc2ccc(=O)oc2c1C1=NN(c2ccccc2)C(c2cccs2)C1 (stereo unspecified)

>  <inhibition>
20.1%

$$$$
>  <molecule>
COc1ccc2ccc(=O)oc2c1C1=NNC(c2ccc(C(F)(F)F)cc2)C1 (stereo unspecified)

>  <inhibition>
21%

$$$$
>  <molecule>
COc1ccc2ccc(=O)oc2c1C1=NNC(c2cccs2)C1 (stereo unspecified)

>  <inhibition>
22.3%

$$$$

Problem: Fill blank: measured inhibition of the molecule COc1ccc2ccc(=O)oc2c1C1=NN(C(N)=O)C(c2ccc(SC)cc2)C1 (stereo unspecified) is ____.
Result: 18.2%

* * *

Molecular target: UniProt:O14746
Sequence (O14746 whole entry): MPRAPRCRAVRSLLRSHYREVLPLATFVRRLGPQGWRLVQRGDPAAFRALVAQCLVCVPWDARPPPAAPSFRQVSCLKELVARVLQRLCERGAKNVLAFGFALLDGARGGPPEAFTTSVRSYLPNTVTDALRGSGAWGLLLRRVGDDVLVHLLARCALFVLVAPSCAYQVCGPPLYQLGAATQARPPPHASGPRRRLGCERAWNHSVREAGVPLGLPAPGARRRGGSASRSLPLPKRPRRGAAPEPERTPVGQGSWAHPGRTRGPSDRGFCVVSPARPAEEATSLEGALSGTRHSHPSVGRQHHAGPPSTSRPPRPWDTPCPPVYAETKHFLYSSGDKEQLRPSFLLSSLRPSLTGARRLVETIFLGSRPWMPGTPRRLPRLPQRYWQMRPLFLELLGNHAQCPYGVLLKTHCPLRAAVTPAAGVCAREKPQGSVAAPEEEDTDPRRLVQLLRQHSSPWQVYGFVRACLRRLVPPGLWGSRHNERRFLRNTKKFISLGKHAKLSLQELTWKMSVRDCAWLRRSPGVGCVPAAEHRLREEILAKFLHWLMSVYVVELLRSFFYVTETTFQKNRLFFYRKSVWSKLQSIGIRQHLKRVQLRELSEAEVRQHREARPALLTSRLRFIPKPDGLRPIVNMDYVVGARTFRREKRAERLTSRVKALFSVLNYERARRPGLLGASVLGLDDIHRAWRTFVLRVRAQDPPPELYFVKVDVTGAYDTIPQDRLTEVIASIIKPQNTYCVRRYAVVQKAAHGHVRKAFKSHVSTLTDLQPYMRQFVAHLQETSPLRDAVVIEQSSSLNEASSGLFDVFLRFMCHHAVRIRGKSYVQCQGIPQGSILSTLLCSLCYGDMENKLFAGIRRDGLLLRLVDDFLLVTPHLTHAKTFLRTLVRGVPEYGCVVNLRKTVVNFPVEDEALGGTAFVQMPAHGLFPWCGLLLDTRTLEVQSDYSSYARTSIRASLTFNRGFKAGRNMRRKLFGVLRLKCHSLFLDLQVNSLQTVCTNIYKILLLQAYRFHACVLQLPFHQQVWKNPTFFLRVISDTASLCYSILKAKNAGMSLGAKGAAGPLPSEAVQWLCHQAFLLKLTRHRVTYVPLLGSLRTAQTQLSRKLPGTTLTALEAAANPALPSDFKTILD
Test: Inhibition of telomerase in human HepG2 cells at 4 uM after 3 days by TRAP-ELISA method
Format: cell-based
assay.metric: inhibition (%)
Please state the figure in %; there is no need to write the unit.

Look over these answered cases.
>  <compound>
CN[C@@H]1C[C@H]2O[C@@](C)([C@@H]1OC)n1c3ccccc3c3c4c(c5c6ccccc6n2c5c31)C(=O)NC4

>  <inhibition, %>
56.5

$$$$
>  <compound>
COc1ccc2ccc(=O)oc2c1C1=NNC(c2ccc(SC)cc2)C1 (stereo not drawn)

>  <inhibition, %>
78.6

$$$$

API: the following record is the query input.
Problem: Fill blank: measured inhibition of the compound COc1ccc2ccc(=O)oc2c1C1=NN(c2ccccc2)C(c2cccs2)C1 (stereo not drawn) is ____.
Result: 68.3

# credit: ChEMBL document CHEMBL3393000
